Test system: human IL-17AA (Homo sapiens)
Sequence (Q16552 24-155) 1: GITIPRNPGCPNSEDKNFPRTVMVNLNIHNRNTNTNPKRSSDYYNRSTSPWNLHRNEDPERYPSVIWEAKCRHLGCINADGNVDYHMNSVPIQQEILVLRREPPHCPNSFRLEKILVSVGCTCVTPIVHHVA
Sequence (Q16552 24-155) 2: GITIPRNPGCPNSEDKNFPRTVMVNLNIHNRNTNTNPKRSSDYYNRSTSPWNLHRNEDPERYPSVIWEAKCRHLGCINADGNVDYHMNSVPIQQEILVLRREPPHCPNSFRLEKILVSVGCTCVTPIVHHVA
Procedure text: IL-8 release assay in human epithelial keratinocytes adult (HEKa)
Particulars: 3 ng/ml human IL-17AA + 10 ng/ml human TNFalpha, 68-72 h, IL-8 by HTRF, read-out: Rel EC50 L-8 release assay
Can you tell me EC50 for the items I'm about to list?

Use the examples below as a reference point.
Cc1n[nH]c(C)c1-c1ccc(NC(=O)[C@@H](NC(=O)c2ccnn2C)[C@@H]2CCCc3ccc(-c4ccc5c(c4)CCNC5)cc32)cc1: < 100 nM
Cc1n[nH]cc1-c1ccc(NC(=O)C(NC(=O)c2ccnn2C)C(c2ccccc2)c2cccc(-c3ccc(=O)n(C(C)C)c3)c2)cc1 (single isomer, unassigned; diastereomer 3) [Example 237]: > 1000 nM

// below: EC50 requested for another compound
What measured EC50 goes with `CC(C)n1nccc1C(=O)N[C@@H](Cc1cc(-c2ccc(=O)n(C(C)C)c2)ccc1Cl)C(=O)Nc1ccc(-c2nncn2C)cc1` ? 100 to 1000 nM

---

Test system: human IL-17AA (Homo sapiens)
Procedure text: IL-8 release assay in human epithelial keratinocytes adult (HEKa)
Particulars: 3 ng/ml human IL-17AA + 10 ng/ml human TNFalpha, 68-72 h, IL-8 by HTRF, read-out: Rel EC50 L-8 release assay
Experimental: Example: IL-8 release assay in human epithelial keratinocytes adult (HEKa) Keratinocytes were seeded at 3500 cells/well in 384-well ViewPlates (Perkin Elmer) in Epilife medium (Thermo Fisher) containing human keratinocyte growth supplement (HKGS) without hydrocortisone and incubated in a humid incubator at 37° C., 5% CO2, overnight. […] for test compounds, by the use of acoustic pipetting. […] Cytotoxicity was measured in the cell-containing […]
Recorded endpoint: EC50

Past entries and their recorded results:
Cc1n[nH]c(C)c1-c1ccc(NC(=O)[C@@H](NC(=O)C2(F)CC2)[C@@H]2CCc3ccc(-c4cc(N5CC(F)C5)ncn4)cc32)cc1 [Example 376]: 100 to 1000 nM
Cn1cnnc1-c1ccc(NC(=O)C(Cc2cc(-c3ccc(O)c(CN4CCNCC4)c3)ccc2Cl)NC(=O)c2ccnn2C)cc1 (stereo not drawn) [Example 157]: 100 to 1000 nM

Answer for every listed entry: what is its EC50? The entries follow.
1. Cc1n[nH]c(C)c1-c1ccc(NC(=O)[C@@H](NC(=O)c2ccnn2C)[C@@H]2CCCc3ccc(-c4ccc5c(c4)CN(C)C5)cc32)cc1 [Example 37]
2. Cc1n[nH]c(C)c1-c1ccc(NC(=O)[C@@H](NC(=O)c2ccnn2C)[C@@H]2CCc3ccc(-c4ccc5c(c4)CCN(C)C5)cc32)cc1 [Example 15]
3. Cc1n[nH]c(C)c1-c1ccc(NC(=O)[C@@H](NC(=O)c2ccnn2C)[C@@H]2CCCc3ccc(-c4ccnc(N5C[C@H]6C[C@@H]5CO6)c4)cc32)cc1 [Example 394]
4. Cc1n[nH]c(C)c1-c1ccc(NC(=O)[C@H](Cc2cc(-c3ccnc(N4CCC5(CC4)COC5)n3)ccc2Cl)NC(=O)C2(F)CC2)cc1 [Example 317]
5. Cc1n[nH]c(C)c1-c1ccc(NC(=O)[C@@H](NC(=O)C2(F)CC2)[C@@H]2CCc3ccc(-c4cc(C(C)C)ncn4)cc32)cc1 [Example 353]
6. Cc1n[nH]c(C)c1-c1ccc(NC(=O)[C@H](Cc2cc(-c3ccnc(N4CCC5(COC5)C4)n3)ccc2Cl)NC(=O)C2(F)CC2)cc1 [Example 316]

1: < 100 nM; 2: < 100 nM; 3: < 100 nM; 4: < 100 nM; 5: 100 to 1000 nM; 6: < 100 nM

---

Could you please report measured pEC50 for the items listed next?
Test system: human IL-17AA (Homo sapiens)
Sequence (Q16552 24-155) 1: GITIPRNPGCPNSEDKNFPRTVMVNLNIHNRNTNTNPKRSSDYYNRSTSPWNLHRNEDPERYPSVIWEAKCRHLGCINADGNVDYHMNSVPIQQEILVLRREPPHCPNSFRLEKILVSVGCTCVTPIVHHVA
Sequence (Q16552 24-155) 2: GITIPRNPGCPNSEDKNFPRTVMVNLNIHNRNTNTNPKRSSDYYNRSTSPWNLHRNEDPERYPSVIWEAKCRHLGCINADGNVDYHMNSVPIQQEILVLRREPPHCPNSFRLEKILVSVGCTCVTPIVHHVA
Procedure text: IL-8 release assay in human epithelial keratinocytes adult (HEKa)
Particulars: 3 ng/ml human IL-17AA + 10 ng/ml human TNFalpha, 68-72 h, IL-8 by HTRF, read-out: Rel EC50 L-8 release assay
pEC50: −log10 of the molar value.

Example compounds with recorded pEC50:
Cc1cnn(C)c1-c1ccc(NC(=O)[C@@H](NC(=O)C2(F)CC2)[C@@H]2CCc3ccc(-c4cc(N5C[C@@H]6C[C@H]5CO6)ncn4)cc32)cc1: 6.00 to 7.00
Cc1cc(-c2ccc(Cl)c(CC(NC(=O)c3ccnn3C)C(=O)Nc3ccc(-c4nncn4C)cc3)c2)cc(C)c1C#N (stereo not drawn): 6.00 to 7.00
Cc1cnn(C)c1-c1ccc(NC(=O)[C@H](Cc2cc(-c3ccc(=O)n(C(C)C)c3)ccc2Cl)NC(=O)c2cocn2)cc1: < 6.00
CC(C)n1cc(-c2ccc3c(c2)C([C@H](NC(=O)c2ccnn2C)C(=O)Nc2ccc(-c4cncn4C)cc2)CC3)ccc1=O (stereo partly drawn): 6.00 to 7.00
Cn1cnnc1-c1ccc(NC(=O)C(Cc2cc(-c3ccc(O)c(C(=O)N4CCOCC4)c3)ccc2Cl)NC(=O)c2ccnn2C)cc1 (stereo not drawn): < 6.00

Provide pEC50 values for the following items, in order.
1. CC(C)n1cc(-c2ccc3c(c2)[C@H]([C@H](NC(=O)c2ccnn2C)C(=O)Nc2ccc(-c4cncn4C)c(O)c2)CCC3)ccc1=O
2. Cc1cnn(C)c1-c1ccc(NC(=O)[C@@H](NC(=O)C2(F)CC2)[C@@H]2CCCc3ccc(-c4ccnc(N5C[C@H]6C[C@@H]5CO6)c4)cc32)cc1
3. Cc1ncn(C)c1-c1ccc(NC(=O)[C@H](Cc2cc(-c3cnn(C(C)(C)C#N)c3)ccc2Cl)NC(=O)c2ccnn2C)cc1
4. Cc1n[nH]c(C)c1-c1ccc(NC(=O)[C@H](Cc2cc(N3CCOCC3)ccc2Cl)NC(=O)c2ccnn2C)cc1

1: > 7.00; 2: > 7.00; 3: 6.00 to 7.00; 4: < 6.00

Take each entry in turn and give its pEC50.
1. CC(C)n1cc(-c2ccc(Cl)c(C[C@H](NC(=O)C(C)(C)F)C(=O)Nc3ccc(-c4nncn4C)cc3)c2)ccc1=O
2. Cn1cncc1-c1ccc(NC(=O)[C@H](Cc2cc(-c3cccc([C@@H]4COCCN4)c3)ccc2Cl)NC(=O)c2ccnn2C)cc1

1: < 6.00; 2: 6.00 to 7.00

I'm hoping you can list pEC50 for every compound here, please.
1. Cc1cnn(C)c1-c1ccc(NC(=O)[C@@H](NC(=O)OC(C)(C)C)[C@@H](c2cccc(-c3ccnc(N4C[C@@H]5C[C@H]4CO5)c3)c2)C2CC2)cc1
2. COCCOCCn1cc(-c2cccc(-c3ccc(Cl)c(CC(NC(=O)c4ccnn4C)C(=O)Nc4ccc(-c5c(C)n[nH]c5C)cc4)c3)c2)nn1 (stereo not drawn)
3. CC(C)n1cc(-c2cccc(C(c3ccccc3)C(NC(=O)OC3CC3)C(=O)Nc3ccc(-c4cncn4C)cc3)c2)ccc1=O (single isomer, unassigned; diastereomer 4) [Example 241]

1. > 7.00
2. 6.00 to 7.00
3. < 6.00

---

Test system: human IL-17AA (Homo sapiens, UniProt Q16552)
Construct: host or cells: HEK (human embryonic kidney) cells
Procedure text: IL-8 release assay in human epithelial keratinocytes adult (HEKa)
Type: cell-based
Particulars: 3 ng/ml human IL-17AA + 10 ng/ml human TNFalpha, 68-72 h, IL-8 by HTRF, read-out: Rel EC50 L-8 release assay
Recorded endpoint: EC50

Cc1n[nH]c(C)c1-c1ccc(NC(=O)[C@@H](NC(=O)C2(F)CC2)[C@@H]2CCc3ccc(-c4cnn(C(C)(C)CN)c4)cc32)cc1 [Example 24]: 100 to 1000 nM

For each entry beneath this line, provide reported EC50.
1. Cc1n[nH]c(C)c1-c1ccc(NC(=O)[C@@H](NC(=O)OC2CC2)[C@@H]2CCc3ccc(-c4cc(N5C[C@@H]6C[C@H]5CO6)ncn4)cc32)cc1 [Example 374]
2. Cc1n[nH]c(C)c1-c1ccc(NC(=O)[C@H](Cc2cc(-c3cccc(CN(C)C)c3)ccc2Cl)NC(=O)c2ccnn2C)cc1 [Example 60]
3. Cn1cncc1-c1ccc(NC(=O)C(Cc2cc(-c3ccnc(OCC4CC4)c3)ccc2Cl)NC(=O)c2ccnn2C)cc1 (stereo not drawn) [Example 166]
4. Cc1ncn(C)c1-c1ccc(NC(=O)[C@@H](NC(=O)c2ccnn2C)[C@@H]2CCCc3ccc(-c4ccc5c(c4)CNC5)cc32)cc1 [Example 42]
5. CCCC(=O)N[C@@H](Cc1cc(-c2ccc(=O)n(C(C)C)c2)ccc1Cl)C(=O)Nc1ccc(-c2c(C)cnn2C)cc1 [Example 330]
6. Cc1cnn(C)c1-c1ccc(NC(=O)[C@H](Cc2cc(-c3ccc(=O)n(C(C)C)c3)ccc2Cl)NC(=O)C(C)C2CC2)cc1 (stereo partly drawn) [Example 332]
7. Cc1[nH]ncc1-c1ccc(NC(=O)C(Cc2cc(-c3ccc(=O)n(C(C)C)c3)ccc2Cl)NC(=O)C2(F)CC2)cc1 (stereo not drawn) [Example 129]
8. Cc1n[nH]cc1-c1ccc(NC(=O)C(NC(=O)c2ccnn2C)C(c2ccccc2)c2cccc(-c3ccc(=O)n(C(C)C)c3)c2)cc1 (single isomer, unassigned; diastereomer 4) [Example 238]

1: 100 to 1000 nM; 2: < 100 nM; 3: 100 to 1000 nM; 4: 100 to 1000 nM; 5: 100 to 1000 nM; 6: > 1000 nM; 7: 100 to 1000 nM; 8: 100 to 1000 nM
